Assay: yeast display, Sf9 membrane polyspecificity reagent, FACS + sequencing; frameworks hold sequencing errors

seq	polyreactivity (PSR sort gate)
QVQLVESGGGLVQAGGSLRLICAASGSTFFYYAMGWYRQAPGKERELVARISGGGSTNYADSVKGRFTISRDNAKNTVYLKMNSLNPEDTAVYYCAADRYHYYRYSYGRYGYWGQCTQVTVSS	high polyreactivity
QVQLVESGGGLVQAGGSLRISCAASGFTFYYNAMGCYRQAPVKERELVAIRFRGGNTYYAYSVKGRFTISRDNAKITVYLQMNSLKPEDTAVYYCTADDRGSTYVYFDYWGQGTQVTVSS	low polyreactivity
QVQLVESGGGLVQAGGSLRLSCAASGSIFFDGNAMGWYRQAPGKERELVAAISVSGGSTYYADSVKGRFTISRDNAKNTVYLQMNSLKPDDTAVYYCAKFPSKSYVPGDYWGQGTQVTVSS	low polyreactivity
QVQLVESGGGLVQAGGSLRLSCAASGFTFYLYAMGWYRQAPGKEREFVASISYRGTSTYYADSVKGRCTISRDNAKNTVYLQMNSLKPEDTAFYYCAARPSYYRTGYGYWGQGTQVTVSS	high polyreactivity
QVQLVESGGGLVQAGGSLRLSCAASGSTFRGYAMGWYRQAPGKERELVAAITSSGGSTYYADSVKGRFTISRDNAKNTVYLQMNSLKPEDTAVYYCAAEGGYWYTITYSYWLDYWGQGTQVTVSS	low polyreactivity
QVQLVESGGGLDQAGGSLRLSCAASGRTFYIYTMGWYRQAPGKERELVAAISSSGDSTYYADSVKGRFTISRDNGKNTVYLQMNSLKPEDTAVYYCAAYATYPDEYWGEGTQVTVSS	low polyreactivity
QVQLVESGGGLVQAGGSLRLSCAASGFTFVTYAMGWSSQAPGKERELVATISWGVGGSYYADSVKGRFTISRDNAKNTVYLPMNSLKPEDTAVYYCNARHTWHQTYDYWGQGTQVTVSS	low polyreactivity
QDQLVESGGGLVQPGGSLRLSCAASGRTFRFNAMGWYRQAPGKERELVAVITSNDGSTYYADSVKGRFTISRDNAKNTVYLQMNSLKPEDTAVYYCAADWSYAWSWFYYWGQGTQVTVSS	low polyreactivity
QVQLVESGGGLVQAGGSLRLSCAASRSTFEIYAMGWYRPAPGKERELFAAISSGGSTNYADSVKGRFTISRDNAKNTVYLQMKSLITEDTAVYYCVYAIQFYYWGQGTQVTVSS	low polyreactivity
QVQLVESGGGFVQAGGSLRLSCAASGFTFTSYAMGWYRQAPGKEREFVAAIRRSGSGTNYADSVKGRFTISRDNAKNTVYLQLNSLKPEDTAVYYCAAEQWGWYWYDYWGQGTQVTVSS	high polyreactivity
QVQLVESGGGLVQAGGSLRLSCADSGRIFGYNAMGWYRQAPGKEREFVAAITTSGGSTYYADSVKGRFTISRDNAKKTVFLQMTSLKPEDTAVYYCARDSLHVFYPYASDDYWGQGTQVTVSS	low polyreactivity

====

Assay: yeast display, Sf9 membrane polyspecificity reagent, FACS + sequencing; frameworks hold sequencing errors

seq	polyreactivity (PSR sort gate)
QVQLVESGGGLVQAGGSLRLICADSGRIFGWYAMGWYRQAPGKERELVAAITSGSRTSYADSVKGRFTISRDNAKNTVYLQMNSLKPEDTAVYYCNRVSHLDYYWGQGTQVTVSS	high polyreactivity
QVQLVESGGGLVQAGGSLRLSCAASGSTFVFYTMGWYRQAPGKEREFVASISGSGGSTYYADSVKGRFTISRDNAKNTVYLQMNSLKPEVSAVYYCAAGYPYYYWTPYYYWGQGTQVTLSS	high polyreactivity

====

Assay: yeast display, Sf9 membrane polyspecificity reagent, FACS + sequencing; frameworks hold sequencing errors

seq	polyreactivity (PSR sort gate)
QVQLVESGGGLVQAGGSLRLSCAASGRTFRLYAMGWYIQAPGKERELVAAISSTGSTYYADSVKGRFTISLDNAKNTVYLQMNSLKPEDTAVYYCNAKLPVTSLKFDYYYWGQGSQVTVSS	high polyreactivity
QVQLVESGGGLVHAGGSLRLSCAAYGFIFRYYAMGRYRQAPGKEMELVATISSGGRTYYADSVKGRFTISRDNAKNTVYLQMNSLKPEDTAVYYCAKDYSWASYNHDYWGQGTQVTVSS	low polyreactivity
QVQLQESGGGLVQAGGDLRLTCAASGNIFRDYIMGWYRQAPGKEREFVAGIDRGANTNYADSVKGRFTISRDNAKNTVYLQMNSLKPEDTAVYYCAVHTAIVPDFIYWGQGTQVTVSS	low polyreactivity
QVQLVESGGGLVQAGGSLRLSCAASGRTFLIYAMGWYRQAPRKEREFVAAIRGRGGSTYYADSVKGRFTISRDNAKNTVYLQMNSLKPEDTAVYYCAATFPGRSFRIRGYGYDYWGQGTQVTVSS	high polyreactivity
QVQLVESGGGLVQAGGSLRLSCAASGSTFTYYAMGWYRQAPGKERELVADIDFSGTSTYYADSVKGRFTISRDNAKNTVYLQMNSLKPEDTAVYYCATDDYNWFDYDYWGQGTQVTVSS	low polyreactivity
QVQLVESGGGLVQAGGSLRLSCAASGFTFRLYTMGWYRQAPGKERELVAGISTSGGSTYYADSVKGRFTISRDNAKNTVYLQMNSLKPEDTAVYYCAAQAFTSYDYWGQGTQVTVSS	high polyreactivity
QVQLVESGGGLVQAGGSLRLSCAASGMIFKYYVMGWYRQAPGKERELVAAIRWSGGITSYADSVKGRFTISRDNAKNTVYLQMNSLKPEDTAVYYCAVAHSRLRTAYTFSVQRYDYWGQGTQVTVSS	low polyreactivity
QVQLVESGAGLFQAGGSLRLSCAASGFTFNYYAMGGYIHAPGKERELVAAISRRGGSTYYADSVKGRFTISRDNAKNNVYLQMKSLKPEDTAVYYCNAASLKFTSPVRFGYWGQGTQVTVSS	high polyreactivity
QVHHVESGGGLVQAGGSLRLSCAASGSTFGAHAMGWYRQAPGKERELVAVITWNDGSTYYADSVKGRFKISRDNAKNTVYLQMNSLKPEDTAVYYCAAEYADSWSAFAWNYYYWGQGTQVTVSS	high polyreactivity
QVQLVESGGGLVQAGGSLRLSCAASGRIFGYYAMGWYRQAPGKERELVAAITWGGGTTRYADSVKGRFTISRDNAKNTVYLQMNSLKPEDTAVYYCATALWVRYYGQGGYIRRYDYWGQGTQVTVSS	high polyreactivity
QDQLVESVGGLVQAGGSLRLSCAASGFTFYNYAMGWYRQAPGKERELVAAISWNGGSTYYADSVKGRFTISRDNAKNTVYLQMNSLKPEDTAVYYCNADISQRTRGYYYVWWSRMDYWGQGTQVTVSS	low polyreactivity

====

Experiment: yeast display, Sf9 membrane polyspecificity reagent, FACS + sequencing; frameworks hold sequencing errors

seq	polyreactivity (PSR sort gate)
QVQLVESGGGLVQAGGSLRLSCAASGNTFAPYAMGWYRQAPGKERELVATISYRGGSTNYADSVKGRFTISRDNAKNTVYLQMNSLKPEDTAVYYCNARYRWVVNRYSASGGSYNYWGQGTQVTVSS	high polyreactivity
QVQLVESGGGLVQAGGSLRLSCAASGRTFYANDMGWYRQAPGKERELVARITSGGSTYYADSVKGRFTISRDNAKNTVYLQMNSLKPEDTAVYYCAAVTRRFSYRYNYWGQGTQVTVSS	high polyreactivity
QVQLVESGGGLVQAGGSRRLSCAASGRTFDSYTMGWYRQAPGKERELVADITFTGGSTYYADSVKGRFTISRDNAKNTVYLQMNSLKPDDTAVYYCNADREYKWYFRYDYWGQGTQVTVSS	low polyreactivity
QVQLIESGGGLVQAGGSLRLSCAASGSIFYNNTMGWYRQAPGKERELVATIRTSGGSTYADSVKGRYTISRDNAKNTLYLQMNSLKPEDTAVYYCAVRRYRSSSYYYWGQGTQVTVSS	high polyreactivity
QVQLVESGGGLVQAGGSLRLSCAASGLTFRFYTMGWDRQAPGKERELVAAISTSGGSTYYADSVKGRFTISRDNAKNTVYLQMNSLKPEDTAVYYCNAVYALNGYDYWGQGTQVTVSS	low polyreactivity

====

Experiment: yeast display, Sf9 membrane polyspecificity reagent, FACS + sequencing; frameworks hold sequencing errors
measurement type: polyreactivity (PSR sort gate)

seq	value reported
QVQLVESGRGLVQAGGSLRLSCAASAVSFISYAMGWYRQAPGKERELVAAISRGGSSTYYADSVKGRFTISRDNAKNTVYLQMNSLKPEDTAVYYCNKAYHRRDSEFGYSGQGTQVTVSS	high polyreactivity
QVQLVESGVGLVQAGGSLRLSCAASGITFNVNAMGWYRQAPGKERELVARITTSGGSTSYADSVKGRFTISRDNAKNTVYLQMNSLKPEDTAVYYCAADRARYYSEYDYWGQGTQVTVSS	low polyreactivity
QFQLVESGGGLVQAGGSLRLSCAASGRIFKTYTMGWYRQAPGKERELVAVITSGGGTYYADSVKGRFTISRDNAKNTVYLQMNSLKPEDTAVYYCAARGMESPYGYWGQGTQVTVSS	low polyreactivity
QVQLVESGGGLVQAGGSLRLSCAASGRIFDQYALGGSRQAPGKERELVAAITSGGSTYYADSVKGRFTISRDNAKNTVYLQMNSLKPEDTAVYYCAAEWQWYGYVLYKYYYWGQGTQVTVSS	high polyreactivity
QVKLVESGGGLVQAGGSLRLSCAASGITFYINAMGWYRQAPGKERELVAVIDSRGSSTFYADSVKGRFTISRDNAKNTVYLQMNSLKPEDTAVYYCAVEGYPGRYRDPGDLYYYWGQGTQVTLSS	low polyreactivity

The reported measurements were obtained from the nanobody polyreactivity screen of Harvey et al. (2022).
